Biological target: Dihydrofolate reductase (Pneumocystis carinii)
Sequence (P16184 whole entry): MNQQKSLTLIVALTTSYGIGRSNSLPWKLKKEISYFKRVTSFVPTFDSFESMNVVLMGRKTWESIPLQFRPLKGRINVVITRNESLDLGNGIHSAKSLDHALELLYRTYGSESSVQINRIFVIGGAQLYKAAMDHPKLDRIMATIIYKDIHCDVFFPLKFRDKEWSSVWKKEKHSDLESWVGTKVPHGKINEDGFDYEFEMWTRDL
Property: IC50 (nM)
Express your answer in nM, writing the number without its unit.

Ask: Can you share its IC50? I mean this compound: `COc1cc(-n2ccc3c4c(N)nc(N)nc4nc(=O)c-3c2)cc(OC)c1OC`
Reply: 2400
